System: Human peripheral blood mononuclear cells
assaySummary: Human Concanavalin-A Proliferation Assay (Con HU Assay)
Type: cell-based
runParameters: Homo sapiens, PBMC, 72 h, concentration 10 μm (in parentheses in the cell); concanavalin-A stimulated human PBMC, 3 days; read-out: % Inhibition of proliferation (at concentrations of 1,10, or 100 μm)
readoutName: inhibition at 10 µM (%)

chemicalStructure	reportedResult
O=C(Nc1ccc(-n2nc(C(F)(F)F)cc2C(F)(F)F)cc1)c1c(F)cc(Cl)cc1Cl	99
O=C(Nc1ccc(-n2nc(C(F)(F)F)cc2C(F)(F)F)cc1)c1ccno1	84
O=C(Nc1ccc(-n2nc(C(F)(F)F)cc2C(F)(F)F)cc1)c1cc(F)cc(F)c1F	100
O=C(Nc1ccc(-n2nc(C(F)(F)F)cc2C(F)(F)F)cc1)c1c(F)cc(F)cc1F	99
O=C(Nc1ccc(-n2nc(C(F)(F)F)cc2C(F)(F)F)cc1)c1cc(Cl)nc(Cl)c1	99
O=C(Nc1ccc(-n2nc(C(F)(F)F)cc2C(F)(F)F)cc1)c1ccc(O)c([N+](=O)[O-])c1	95
O=C(Nc1ccc(-n2nc(C(F)(F)F)cc2C(F)(F)F)cc1)c1ccc(Cl)nc1	100
O=C(Nc1ccc(-n2nc(C(F)(F)F)cc2C(F)(F)F)nc1)c1cc(F)c(F)cc1Cl	100

----------
Measured melting point by item

chemicalStructure	melting point
O=C(Nc1ccc(-n2nc(C(F)(F)F)nc2Cl)cc1)c1ccncc1F	167 to 170 °C
O=C(Nc1c(F)cccc1F)c1ccc(-n2nc(C(F)(F)F)cc2C(F)(F)F)cc1	187 to 188 °C
O=C(Nc1ccc(-n2nc(C(F)(F)F)cc2C(F)(F)F)cc1)c1cc(Cl)ccc1Cl	154 to 156 °C
O=C(Nc1ccc(-n2nc(C(F)(F)F)cc2C(F)(F)F)cc1)c1ccc(C(F)(F)F)cc1C(F)(F)F	200 to 201 °C
COc1cc(C(F)(F)F)nn1-c1ccc(NC(=O)c2snnc2C)cc1	159 to 160 °C
O=C(Nc1ccc(-n2nc(C(F)(F)F)cc2C(F)(F)F)cc1)C1=CCCC1	174 to 175 °C
O=C(Nc1ccc(-n2nc(C(F)(F)F)cc2C(F)(F)F)cc1)c1cccc(CO)c1	160 to 162 °C
O=C(CCCl)Nc1ccc(-n2nc(C(F)(F)F)cc2C(F)(F)F)cc1	144 to 145 °C
Fc1ccc(NCc2ccc(-n3nc(C(F)(F)F)cc3C(F)(F)F)cc2)cc1	102 to 103 °C
O=C(Nc1ccc(-n2nc(C(F)(F)F)cc2C(F)(F)F)cc1)c1ccc(Cl)s1	182 to 184 °C
COc1cc(C(F)(F)F)nn1-c1ccc(NC(=O)c2ccccc2F)cc1	167 to 168 °C
O=C(Nc1ccc(-n2nc(C(F)(F)F)cc2C(F)(F)F)cc1)c1cccc(Cl)c1	142 to 144 °C
O=C(Nc1ccc(-n2nc(C(F)(F)F)cc2-c2cccnc2)cc1)c1ccccc1F	138 to 140 °C
CSc1cc(C(F)(F)F)nn1-c1ccc(NC(=O)c2ccncc2F)cc1	142 to 143 °C
O=C(Nc1ccc(-n2nc(C(F)(F)F)cc2C(F)(F)F)cc1)c1ccc2c(c1)OCO2	222 to 224 °C
CC(=O)c1ccc(C(=O)Nc2ccc(-n3nc(C(F)(F)F)cc3C(F)(F)F)cc2)cc1	203 to 204 °C
O=C(Nc1ccc(-n2nc(C(F)(F)F)cc2C(F)(F)F)cc1)c1c(F)cc(F)cc1F	183 to 185 °C
Cc1nc(C)n(-c2ccc(NC(=O)c3snnc3C)cc2)n1	144 to 145 °C
N#Cc1ccc(C(=O)Nc2ccc(-n3nc(C(F)(F)F)cc3C(F)(F)F)cc2)cc1	169 to 171 °C
O=C(CCC1CCCC1)Nc1ccc(-n2nc(C(F)(F)F)cc2C(F)(F)F)cc1	130 to 132 °C

----------
System: Human peripheral blood mononuclear cells
assaySummary: Human Concanavalin-A Proliferation Assay (Con HU Assay)
Format: cell-based
runParameters: Homo sapiens, PBMC, concanavalin-A stimulated human PBMC, tritiated thymidine
readoutName: IC50 (nM)

compound	experimentalTarget	unitTag	reportedResult
CCOc1cc(C(F)(F)F)nn1-c1ccc(NC(=O)c2cccnc2F)cc1 [Example 319]	Human peripheral blood mononuclear cells	nM	219
O=C(Nc1ccc(-n2nc(C(F)(F)F)cc2C(F)(F)F)cc1)c1ccccc1C(F)(F)F [Example 127]	Human peripheral blood mononuclear cells	nM	487
O=C(Nc1ccc(-n2nc(C(F)(F)F)cc2Cl)cc1)c1ccncc1F [Example 328]	Human peripheral blood mononuclear cells	nM	75
Cc1nnsc1C(=O)Nc1ccc(-n2nc(-c3nccs3)cc2C#N)cc1 [Example 340]	Human peripheral blood mononuclear cells	nM	251
O=C(Nc1ccc(-n2nc(C(F)(F)F)cc2C(F)(F)F)cc1)c1cc(F)c(F)c(F)c1F [Example 235]	Human peripheral blood mononuclear cells	nM	107
O=C(Nc1ccc(-n2nc(C(F)(F)F)cc2C(F)(F)F)cc1)c1cc(Cl)nc(Cl)c1 [Example 269]	Human peripheral blood mononuclear cells	nM	392
O=C(Nc1ccc(-n2nc(C(F)(F)F)cc2C(F)(F)F)cc1)c1cccc(I)c1 [Example 25]	Human peripheral blood mononuclear cells	nM	396
O=C(Nc1ccc(-n2nc(C(F)(F)F)cc2C(F)(F)F)cc1)c1csc([N+](=O)[O-])c1 [Example 257]	Human peripheral blood mononuclear cells	nM	387
O=C(Nc1ccc(-n2nc(C(F)(F)F)cc2C(F)(F)F)cc1)c1ccc(Cl)nc1 [Example 249]	Human peripheral blood mononuclear cells	nM	182
O=C(Nc1ccc(-n2nc(C(F)(F)F)cc2[N+](=O)[O-])cc1)c1ccncc1F [Example 333]	Human peripheral blood mononuclear cells	nM	410
O=C(Nc1ccc(-n2nc(-c3cncc(Br)c3)cc2OC(F)F)cc1)c1ccncc1F [Example 339]	Human peripheral blood mononuclear cells	nM	369

----------
System: Human peripheral blood mononuclear cells
assaySummary: Human Concanavalin-A Proliferation Assay (Con HU Assay)
Assay type: cell-based
runParameters: Homo sapiens, PBMC, concanavalin-A stimulated human PBMC, tritiated thymidine

molecule	unitTag	IC50
N#Cc1cc(-c2ccccn2)nn1-c1ccc(NC(=O)c2ccncc2F)cc1	nM	169
O=C(Nc1ccc(-n2nc(C(F)(F)F)cc2C(F)(F)F)cc1)c1ccccc1Cl	nM	138
NCc1ccc(C(=O)Nc2ccc(-n3nc(C(F)(F)F)cc3C(F)(F)F)cc2)c(Cl)c1	nM	299
Cc1ccc([N+](=O)[O-])c(C(=O)Nc2ccc(-n3nc(C(F)(F)F)cc3C(F)(F)F)cc2)c1	nM	368
CC(=O)N1CCC(C(=O)Nc2ccc(-n3nc(C(F)(F)F)cc3C(F)(F)F)cc2)CC1	nM	730
Fc1ccc(CNc2ccc(-n3nc(C(F)(F)F)cc3C(F)(F)F)cc2)cc1	nM	712
N#Cc1cc(NC(=O)c2ccccc2F)ccc1-n1nc(C(F)(F)F)cc1C(F)(F)F	nM	269
COc1cc(C(F)(F)F)nn1-c1ccc(NC(=O)c2snnc2C)cc1	nM	246
Cc1nnsc1C(=O)Nc1ccc(-n2nc(C(F)(F)F)cc2C)cc1	nM	248
O=C(Nc1ccc(-n2nc(C(F)(F)F)cc2C(F)(F)F)cc1)c1cccc(O)c1	nM	394
O=C(Nc1ccc(-n2nc(C(F)(F)F)cc2C(F)(F)F)cc1)C1CC1c1ccccc1 (stereo not drawn)	nM	2440
O=C(Nc1ccc(-n2nc(C(F)(F)F)cc2C(F)(F)F)cc1)c1c(F)c(F)c(Br)c(F)c1F	nM	180
CC(=O)c1cc(C(F)(F)F)nn1-c1ccc(NC(=O)c2cccnc2F)cc1	nM	320
COc1cccc(O)c1C(=O)Nc1ccc(-n2nc(C(F)(F)F)cc2C(F)(F)F)cc1	nM	4670
Cc1ccc(NC(=O)Nc2ccc(-n3nc(C(F)(F)F)cc3C(F)(F)F)cc2)c([N+](=O)[O-])c1	nM	354
O=C(Nc1ccc(-n2nc(C(F)(F)F)cc2C(F)(F)F)cc1)c1ccc(F)cc1Cl	nM	61
CS(=O)(=O)c1cccc(C(=O)Nc2ccc(-n3nc(C(F)(F)F)cc3C(F)(F)F)cc2)c1	nM	4910
Cn1cccc1-c1cc(OC(F)F)n(-c2ccc(NC(=O)c3ccncc3F)cc2)n1	nM	329
O=C(Nc1ccc(-n2nc(C(F)(F)F)cc2C(F)(F)F)cc1)c1ccc([N+](=O)[O-])cc1	nM	365
O=C(Nc1ccc(-n2nc(C(F)(F)F)cc2OC(F)F)cc1)c1ccncc1	nM	238
O=C(Nc1ccc(-n2nc(C(F)(F)F)cc2C(F)(F)F)cc1)c1cccc([N+](=O)[O-])c1	nM	298
CC(=O)c1ccc(C(=O)Nc2ccc(-n3nc(C(F)(F)F)cc3C(F)(F)F)cc2)cc1	nM	572
N#Cc1cc(C2CCCO2)nn1-c1ccc(NC(=O)c2ccncc2F)cc1 (stereo not drawn)	nM	1860
O=C(Nc1ccc(-n2nc(C(F)(F)F)cc2C(F)(F)F)cc1)c1ccc(Cl)cc1O	nM	4230
O=C(Nc1ccc(-n2nc(C(F)(F)F)cc2C(F)(F)F)cc1)Nc1ccc([N+](=O)[O-])cc1Cl	nM	343
O=C(Nc1ccc(-n2nc(C(F)(F)F)cc2C(F)(F)F)cc1)c1ccc(Br)cc1Cl	nM	218
O=C(Nc1ccc(-n2nc(C(F)(F)F)cc2Br)cc1)c1ccncc1F	nM	44
